# Measured on: CYP1A1 (Homo sapiens)
# Sequence (P04798 1-512): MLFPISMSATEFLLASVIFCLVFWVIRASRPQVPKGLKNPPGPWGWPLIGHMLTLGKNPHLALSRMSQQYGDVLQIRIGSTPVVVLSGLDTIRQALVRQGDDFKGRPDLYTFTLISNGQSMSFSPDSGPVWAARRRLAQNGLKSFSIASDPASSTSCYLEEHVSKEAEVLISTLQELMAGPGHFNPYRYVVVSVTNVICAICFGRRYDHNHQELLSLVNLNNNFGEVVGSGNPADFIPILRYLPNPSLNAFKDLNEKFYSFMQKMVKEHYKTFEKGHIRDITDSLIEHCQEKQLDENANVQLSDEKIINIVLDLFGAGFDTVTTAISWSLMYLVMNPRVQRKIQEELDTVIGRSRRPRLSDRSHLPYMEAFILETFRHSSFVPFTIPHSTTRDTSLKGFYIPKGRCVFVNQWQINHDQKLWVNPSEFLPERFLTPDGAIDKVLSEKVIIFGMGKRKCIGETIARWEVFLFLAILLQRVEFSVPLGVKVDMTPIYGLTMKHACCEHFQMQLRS
# Assay summary: in vitro
# Measurement conditions: pH 7.4, CYP1A1 enzyme activity (%), MNF 2.5 µM, replicate IV, positive control
Readout name: activity (%)
Numeric answer only, unit % assumed.

Name the reported activity value associated with the molecule COc1cc(-c2cc(=O)c3ccccc3o2)ccc1[N+](=O)[O-] [MNF]
1.67

---

# Measured on: CYP1A1 (Homo sapiens)
# Assay summary: in vitro
# Measurement conditions: pH 7.4, CYP1A1 enzyme activity (%), MNF 2.5 µM, replicate III, positive control
Readout name: activity (%)
Numeric answer only, unit % assumed.

Name the reported activity value associated with the compound COc1cc(-c2cc(=O)c3ccccc3o2)ccc1[N+](=O)[O-]
1.71

---

# Measured on: CYP1A1 (Homo sapiens, UniProt P04798)
# Assay summary: in vitro
# Measurement conditions: pH 7.4, CYP1A1 enzyme activity (%), MNF 2.5 µM, replicate I, positive control
Readout name: activity (%)
Numeric answer only, unit % assumed.

Name the reported activity value associated with the compound COc1cc(-c2cc(=O)c3ccccc3o2)ccc1[N+](=O)[O-]
1.54

---

# Measured on: CYP1A1 (Homo sapiens)
# Assay summary: in vitro
# Measurement conditions: pH 7.4, CYP1A1 enzyme activity (%), MNF 2.5 µM, replicate VIII, positive control
Readout name: activity (%)
Numeric answer only, unit % assumed.

Name the reported activity value associated with the compound COc1cc(-c2cc(=O)c3ccccc3o2)ccc1[N+](=O)[O-]
0.51

---

# Measured on: CYP1A1 (Homo sapiens)
# Assay summary: in vitro
# Measurement conditions: pH 7.4, CYP1A1 enzyme activity (%), MNF 2.5 µM, replicate VII, positive control
Readout name: activity (%)
Numeric answer only, unit % assumed.

Name the reported activity value associated with the compound COc1cc(-c2cc(=O)c3ccccc3o2)ccc1[N+](=O)[O-]
0.51

---

# Measured on: CYP1A1 (Homo sapiens)
# Assay summary: in vitro
# Measurement conditions: pH 7.4, CYP1A1 enzyme activity (%), MNF 2.5 µM, replicate VI, positive control
Readout name: activity (%)
Numeric answer only, unit % assumed.

Reported activity for CYP1A1 (Homo sapiens), given COc1cc(-c2cc(=O)c3ccccc3o2)ccc1[N+](=O)[O-] [MNF] ?
1.7

Values compiled from paper PMC11435205.
